shrunken log2 fold change overview
test system: Escherichia coli TOP10; assay: shrunken log2 fold change of peptide-encoding DNA abundance (4.5 h post-induction vs induction); higher = less antimicrobial activity (less host growth inhibition); settings: time post-induction: 4.5 h; library: site-saturation at positions 5, 18, 19, 20
// no unit, no text: just the number

Below, 4 sequences whose answers are already recorded.
RRIRTRPPRLPRPRPRPELCPRP: -0.101
RRIRNRPPRLPRPRPRPRYPPRP: -0.121
RRIRQRPPRLPRPRPRPCLPPRP: -0.186
RRIRDRPPRLPRPRPRPLVIPRP: -0.0438

Q: Reported shrunken log2 fold change, sequence `RRIRTRPPRLPRPRPRPIDAPRP` : ____
Result: -0.0859

Q: Field entry: `RRIRCRPPRLPRPRPRPGYFPRP`
Result: -0.394

Q: Queued: `RRIRWRPPRLPRPRPRPPTLPRP`
Result: 0.315

Q: Next: `RRIRLRPPRLPRPRPRPRCFPRP`
Result: -0.0548

Q: Try this sequence too: `RRIRPRPPRLPRPRPRPHEQPRP`
Result: 0.0602

Q: Again, but for `RRIRTRPPRLPRPRPRPQAMPRP`
Result: 0.00573

Q: Input `RRIRDRPPRLPRPRPRPKFRPRP`
Result: 0.152

Q: Quick one: `RRIRWRPPRLPRPRPRPTYGPRP`
Result: 0.0553

Q: Please give the result for `RRIRSRPPRLPRPRPRPTWAPRP` too.
Result: 0.518

Q: Next sequence up: `RRIRYRPPRLPRPRPRPLSHPRP`
Result: -0.678

Q: Let us now turn to `RRIRRRPPRLPRPRPRPLFLPRP`
Result: -0.173

----------
test system: Escherichia coli TOP10; assay: shrunken log2 fold change of peptide-encoding DNA abundance (4.5 h post-induction vs induction); higher = less antimicrobial activity (less host growth inhibition); conditions: time post-induction: 4.5 h; library: site-saturation at positions 5, 18, 19, 20
Collected shrunken log2 fold change values appear next to each entry.
Answer using only a numeral; do not append any unit.

Q: Which shrunken log2 fold change is listed for `RRIRIRPPRLPRPRPRPNNRPRP` ?
Result: -0.557

----------
test system: Escherichia coli TOP10; experiment: shrunken log2 fold change of peptide-encoding DNA abundance (4.5 h post-induction vs induction); higher = less antimicrobial activity (less host growth inhibition); conditions: time post-induction: 4.5 h; library: site-saturation at positions 5, 18, 19, 20
Class field: derived from shrunken log2 fold change; ranges A = under -0.2, B = from -0.2 up to 0.06, C = 0.06 and over

Examples with answers:
RRIRCRPPRLPRPRPRPDNIPRP: B
RRIRARPPRLPRPRPRPETNPRP: C

Q: Bin this entry: `RRIRQRPPRLPRPRPRPHYLPRP`
Result: B

Q: Now try `RRIRARPPRLPRPRPRPFIAPRP` .
Result: C

Q: For `RRIRARPPRLPRPRPRPMFTPRP` then?
Result: B

Q: Another sequence to look at: `RRIRPRPPRLPRPRPRPRANPRP`
Result: C

Q: Record: `RRIRCRPPRLPRPRPRPTDFPRP`
Result: A

Q: How about `RRIRQRPPRLPRPRPRPHNDPRP` ?
Result: A

Q: Moving on to the next sequence: `RRIRVRPPRLPRPRPRPCMQPRP`
Result: C

Q: Consider next the sequence `RRIRERPPRLPRPRPRPAKYPRP` in the same way.
Result: A

Q: Can you check `RRIRLRPPRLPRPRPRPWGQPRP` next?
Result: B

Q: Continue with `RRIRFRPPRLPRPRPRPPHWPRP`
Result: C

----------
test system: Escherichia coli TOP10; assay: shrunken log2 fold change of peptide-encoding DNA abundance (4.5 h post-induction vs induction); higher = less antimicrobial activity (less host growth inhibition); details: time post-induction: 4.5 h; library: site-saturation at positions 5, 18, 19, 20
Each entry below lists one item and its recorded shrunken log2 fold change value.
Answer using only a numeral; do not append any unit.

RRIRDRPPRLPRPRPRPFAYPRP: -0.101
RRIRARPPRLPRPRPRPRHVPRP: 0.162
RRIRARPPRLPRPRPRPIEHPRP: 0.126
RRIRVRPPRLPRPRPRPYTIPRP: -0.736
RRIRMRPPRLPRPRPRPSLFPRP: 0.136

Q: Item `RRIRWRPPRLPRPRPRPTPNPRP` has what recorded shrunken log2 fold change?
Result: 0.519

Q: Proceed to `RRIRTRPPRLPRPRPRPCDWPRP`
Result: -0.0538

Q: Follow-up entry: `RRIRVRPPRLPRPRPRPRPSPRP`
Result: 0.382

Q: Next: `RRIRARPPRLPRPRPRPDHQPRP`
Result: -0.0683

Q: Now this one: `RRIRERPPRLPRPRPRPPLEPRP`
Result: 0.161

Q: Would you mind doing `RRIRLRPPRLPRPRPRPIEPPRP` as well?
Result: 0.144

Q: Would you kindly repeat that for `RRIRCRPPRLPRPRPRPYMIPRP` ?
Result: -0.582

Q: Same thing, different sequence: `RRIRPRPPRLPRPRPRPSIHPRP`
Result: -0.974

Q: Same again, this time with `RRIRQRPPRLPRPRPRPNEKPRP`
Result: -0.0522

Q: Try this sequence too: `RRIRMRPPRLPRPRPRPHMEPRP`
Result: -0.0461

Q: Next up: `RRIRKRPPRLPRPRPRPKMSPRP`
Result: -0.315

----------
shrunken log2 fold change values, listed per item
system: Escherichia coli TOP10; experiment: shrunken log2 fold change of peptide-encoding DNA abundance (4.5 h post-induction vs induction); higher = less antimicrobial activity (less host growth inhibition); details: time post-induction: 4.5 h; library: site-saturation at positions 5, 18, 19, 20
Give the value as a plain number.

RRIRLRPPRLPRPRPRPGTHPRP: -0.107

# next sequence below
Q: Bench note: what shrunken log2 fold change did `RRIRRRPPRLPRPRPRPCMLPRP` show?
Result: -0.151

----------
sequences and their reported shrunken log2 fold change
system: Escherichia coli TOP10; assay: shrunken log2 fold change of peptide-encoding DNA abundance (4.5 h post-induction vs induction); higher = less antimicrobial activity (less host growth inhibition); details: time post-induction: 4.5 h; library: site-saturation at positions 5, 18, 19, 20

RRIRIRPPRLPRPRPRPKDCPRP: -0.0124
RRIRDRPPRLPRPRPRPAMRPRP: 0.415
RRIRARPPRLPRPRPRPRTDPRP: 0.465
RRIRNRPPRLPRPRPRPTLEPRP: 0.041

Q: Quick one: shrunken log2 fold change for `RRIRMRPPRLPRPRPRPRCDPRP` ?
Result: 0.397

Q: Further, for `RRIRSRPPRLPRPRPRPPMQPRP` ?
Result: 0.268

Q: # repeat for `RRIRVRPPRLPRPRPRPMRMPRP`
Result: -0.00559

Q: # repeat for `RRIRKRPPRLPRPRPRPTANPRP`
Result: 0.863

Q: Query `RRIRARPPRLPRPRPRPTQMPRP` next
Result: 0.563

Q: Next sequence up: `RRIRGRPPRLPRPRPRPMMCPRP`
Result: 0.0367

Q: Next sequence: `RRIRPRPPRLPRPRPRPWWSPRP`
Result: 0.361

Q: Next up: `RRIRARPPRLPRPRPRPVLSPRP`
Result: 0.26

----------
Here, each record is paired with measured shrunken log2 fold change data.
system: Escherichia coli TOP10; test: shrunken log2 fold change of peptide-encoding DNA abundance (4.5 h post-induction vs induction); higher = less antimicrobial activity (less host growth inhibition); conditions: time post-induction: 4.5 h; library: site-saturation at positions 5, 18, 19, 20
Keep it simple and answer with nothing but the number.

Illustrative cases are given below, each with its answer.
RRIRGRPPRLPRPRPRPWELPRP: 0.136
RRIRSRPPRLPRPRPRPFLQPRP: -0.267
RRIRPRPPRLPRPRPRPMHNPRP: -0.202

Q: Quick one: shrunken log2 fold change of `RRIRVRPPRLPRPRPRPVHKPRP` ?
Result: 0.129

Q: Please do the same for `RRIRLRPPRLPRPRPRPDKAPRP` as well.
Result: 0.0248

Q: Next sequence: `RRIRNRPPRLPRPRPRPRQSPRP`
Result: 0.112

Q: Now the same for `RRIRKRPPRLPRPRPRPQMLPRP`
Result: -0.167

Q: Next record, please: `RRIRWRPPRLPRPRPRPIAQPRP`
Result: 0.582

Q: Please answer likewise for `RRIRSRPPRLPRPRPRPNYFPRP`
Result: -0.828

----------
tested on: Escherichia coli TOP10; experiment: shrunken log2 fold change of peptide-encoding DNA abundance (4.5 h post-induction vs induction); higher = less antimicrobial activity (less host growth inhibition); settings: time post-induction: 4.5 h; library: site-saturation at positions 5, 18, 19, 20;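 also: peptides expressed intracellularly from a pBAD plasmid library in pooled LB shake-flask culture, induced with 0.3% L-arabinose, DNA abundance read by NGS, three biological replicates, DESeq2 with apeglm shrinkage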
Decision: shrunken log2 fold change >= -0.1 yields class 1, all other cases yield class 0.

The following sequences have reported results that may help.
RRIRNRPPRLPRPRPRPTVLPRP: class 1
RRIRGRPPRLPRPRPRPFPWPRP: class 1
RRIRGRPPRLPRPRPRPLDWPRP: class 1
RRIRKRPPRLPRPRPRPGPMPRP: class 1
RRIRSRPPRLPRPRPRPRVCPRP: class 1
RRIRFRPPRLPRPRPRPCGCPRP: class 1

Q: Decide: is the reported value of shrunken log2 fold change for `RRIRSRPPRLPRPRPRPQTLPRP` equal to or greater than -0.1?
Result: class 0

Q: Entry to check: `RRIRGRPPRLPRPRPRPRNEPRP`
Result: class 1

Q: How about this sequence: `RRIRGRPPRLPRPRPRPIQDPRP`
Result: class 1

Q: And `RRIRKRPPRLPRPRPRPRNEPRP` ?
Result: class 1

Q: Same question for `RRIRERPPRLPRPRPRPVLAPRP` please.
Result: class 1

Data provenance is the supplement of paper PMC9112550.
